test system: Pseudomonas aeruginosa; assay: Antibacterial activity against Pseudomonas aeruginosa assessed as reduction in microbial growth by measuring zone of inhibition; assay type: functional; note: test concentration or dose not given here
Field: inhibition zone (IZ). Provide a value for each of the compounds that follow.
Use mm as the unit, but write only the number.

Query :: What reported inhibition zone (IZ) corresponds to "Ic1cnc(SCc2ccccc2)nc1N/N=C/c1c(-c2ccccc2)c(-c2ccccc2)nn1-c1ccccc1" on Pseudomonas aeruginosa?
Result :: 16

Query :: What reported inhibition zone (IZ) corresponds to "Nc1ncccc1/C=N/Nc1nc(SCc2ccccc2)ncc1I" on Pseudomonas aeruginosa?
Result :: 18

Query :: What reported inhibition zone (IZ) corresponds to "COc1ccc(/C=N/Nc2nc(SCc3ccccc3)ncc2I)cc1O" on Pseudomonas aeruginosa?
Result :: 19

Query :: What reported inhibition zone (IZ) corresponds to "Oc1ccccc1/C=N/Nc1nc(SCc2ccccc2)ncc1I" on Pseudomonas aeruginosa?
Result :: 18

Query :: What reported inhibition zone (IZ) corresponds to "O=[N+]([O-])c1ccc(Nc2nc(SCc3ccccc3)ncc2I)cc1" on Pseudomonas aeruginosa?
Result :: 10

Query :: What reported inhibition zone (IZ) corresponds to "Clc1ccc(/C=N/Nc2nc(SCc3ccccc3)ncc2I)cc1" on Pseudomonas aeruginosa?
Result :: 18

====

Field: MIC. Provide a value for each of the compounds that follow.
test system: Pseudomonas aeruginosa; experiment: Antibacterial activity against Pseudomonas aeruginosa assessed as inhibition of bacterial growth incubated for 4 to 20 hrs by resazurin based microplate reader analysis; format: functional; details: time 4-20 hrs
Use µg/mL as the unit, but write only the number.

Query :: Which value of MIC has been reported for "CC1(C)S[C@@H]2[C@H](NC(=O)[C@H](N)c3ccc(O)cc3)C(=O)N2[C@H]1C(=O)O" in the records?
Result :: 1

Query :: Which value of MIC has been reported for "Cc1nc(NC(=O)c2cc(C(F)(F)F)cc(C(F)(F)F)c2)c2c(C(F)(F)F)cc(-c3ccccc3)nc2n1" in the records?
Result :: 50

Query :: Which value of MIC has been reported for "Cc1nc(NC(=O)c2ccncc2)c2c(C(F)(F)F)cc(-c3ccccc3)nc2n1" in the records?
Result :: 50

Query :: Which value of MIC has been reported for "CCCCCCCc1ccc(C(=O)Nc2nc(C)nc3nc(-c4ccccc4)cc(C(F)(F)F)c23)cc1" in the records?
Result :: 50

====

Field: MIC. Provide a value for each of the compounds that follow.
test system: Staphylococcus aureus; assay: microbe, parasite or virus in culture; conditions: ATCC 25923, 24 h
Description: Antibacterial activity against Staphylococcus aureus ATCC 25923 assessed as reduction in bacterial growth measured after 24 hrs by Mueller-Hinton broth assay
Use µg/mL as the unit, but write only the number.

Query :: What reported MIC corresponds to "Cc1ccc(-c2c(N)c(C#N)nc3[nH]c(=O)[nH]c(=O)c23)cc1" on Staphylococcus aureus?
Result :: 32

Query :: What reported MIC corresponds to "N#Cc1nc2[nH]c(=O)[nH]c(=O)c2c(-c2ccccc2)c1N" on Staphylococcus aureus?
Result :: 8

Query :: What reported MIC corresponds to "N#Cc1nc2[nH]c(=O)[nH]c(=O)c2c(-c2ccc(Cl)cc2)c1N" on Staphylococcus aureus?
Result :: 2

Query :: What reported MIC corresponds to "O=C(N[C@H](CO)[C@H](O)c1ccc([N+](=O)[O-])cc1)C(Cl)Cl" on Staphylococcus aureus?
Result :: 8

Query :: What reported MIC corresponds to "N#Cc1nc2[nH]c(=O)[nH]c(=O)c2c(-c2c(Cl)cccc2Cl)c1N" on Staphylococcus aureus?
Result :: 64

====

test system: Bacillus subtilis; experiment: Antibacterial activity against Bacillus subtilis 6633 assessed as reduction in bacterial growth; assay type: functional
metric_name: MIC (µg/mL)
Use µg/mL as the unit, but write only the number.

Query :: Which value of MIC has been reported for "O=C(N[C@H](CO)[C@H](O)c1ccc([N+](=O)[O-])cc1)C(Cl)Cl" in the records?
Result :: 6

Query :: Which value of MIC has been reported for "Cc1nc2scc(-c3ccco3)c2c(=O)n1NC(=O)c1ccc(Cl)cc1Cl" in the records?
Result :: 4

Query :: Which value of MIC has been reported for "Cc1nc2scc(-c3ccco3)c2c(=O)n1NC(=O)c1ccc(F)cc1F" in the records?
Result :: 5

Query :: Which value of MIC has been reported for "Cc1nc2scc(-c3ccco3)c2c(=O)n1/N=C/c1ccc(F)cc1F" in the records?
Result :: 4

Query :: Which value of MIC has been reported for "Cc1nc2scc(-c3ccco3)c2c(=O)n1/N=C/c1ccc(Cl)cc1Cl" in the records?
Result :: 4

Query :: Which value of MIC has been reported for "CC1(C)S[C@@H]2[C@H](NC(=O)Cc3ccccc3)C(=O)N2[C@H]1C(=O)O" in the records?
Result :: 22

Query :: Which value of MIC has been reported for "Cc1nc2scc(-c3ccco3)c2c(=O)n1/N=C/c1ccc([N+](=O)[O-])cc1" in the records?
Result :: 11

Query :: Which value of MIC has been reported for "CC1(C)S[C@@H]2[C@H](NC(=O)[C@H](N)c3ccccc3)C(=O)N2[C@H]1C(=O)O" in the records?
Result :: 4

Query :: Which value of MIC has been reported for "Cc1nc2scc(-c3ccco3)c2c(=O)n1NC(=O)c1ccc([N+](=O)[O-])cc1" in the records?
Result :: 5

====

test system: Staphylococcus aureus; assay: Antibacterial activity against Staphylococcus aureus assessed as reduction in bacterial growth incubated for 16 to 20 hrs by Mueller-Hinton broth based two-fold serial dilution method; type: functional; settings: time 16-20 hrs
Field: MIC. Provide a value for each of the compounds that follow.

Query :: What reported MIC corresponds to "Nc1c(-c2nc3ccccc3s2)c(-c2ccc(Cl)cc2)nc2nc(N/N=C/c3cccc([N+](=O)[O-])c3)[nH]c(=O)c12" on Staphylococcus aureus?
Result :: 12.5 mg/L

Query :: What reported MIC corresponds to "Nc1c(-c2nc3ccccc3s2)c(-c2ccc(Cl)cc2)nc2nc(N/N=C/c3cccc(Cl)c3)[nH]c(=O)c12" on Staphylococcus aureus?
Result :: 25 mg/L

Query :: What reported MIC corresponds to "Nc1cccc(/C=N/Nc2nc3nc(-c4ccc(Cl)cc4)c(-c4nc5ccccc5s4)c(N)c3c(=O)[nH]2)c1" on Staphylococcus aureus?
Result :: 25 mg/L

Query :: What reported MIC corresponds to "Nc1c(-c2nc3ccccc3s2)c(-c2ccc(Cl)cc2)nc2nc(N/N=C/c3cccc(F)c3)[nH]c(=O)c12" on Staphylococcus aureus?
Result :: 12.5 mg/L

====

test system: Staphylococcus cohnii; assay: Antibacterial activity against Staphylococcus cohnii; type: functional
Field: MIC. Provide a value for each of the compounds that follow.
Use µg/mL as the unit, but write only the number.

Query :: Which value of MIC has been reported for Clc1ccc(C(Cc2ccccc2)c2c(Cl)nc(N3CCNCC3)nc2Cl)cc1 (centres undefined) in the records?
Result :: 100

Query :: Which value of MIC has been reported for Clc1ccc(C(Cc2cccc(Cl)c2)c2c(Cl)nc(N3CCNCC3)nc2Cl)cc1 (centres undefined) in the records?
Result :: 75

Query :: Which value of MIC has been reported for Clc1ccc(C(Cc2ccccc2)c2c(Cl)nc(Cl)nc2Cl)cc1 (centres undefined) in the records?
Result :: 100

Query :: Which value of MIC has been reported for Nc1nc(Cl)c(C(Cc2ccccc2)c2ccc(Cl)cc2)c(Cl)n1 (centres undefined) in the records?
Result :: 100

====

system: Staphylococcus epidermidis; test: Antibacterial activity against Staphylococcus epidermidis assessed as reduction in microbial growth after 24 hrs by CLSI based microdilution method; assay type: functional
Field: MIC. Provide a value for each of the molecules that follow.
Use µg/mL as the unit, but write only the number.

Query :: Which value of MIC has been reported for Clc1ccc(C(Cc2cccc(Cl)c2)c2c(Cl)nc(N3CCNCC3)nc2Cl)cc1 (centres undefined) in the records?
Result :: 75

Query :: Which value of MIC has been reported for Clc1ccc(C(Cc2ccccc2)c2c(Cl)nc(N3CCNCC3)nc2Cl)cc1 (centres undefined) in the records?
Result :: 100

Query :: Which value of MIC has been reported for Clc1ccc(C(Cc2ccccc2)c2c(Cl)nc(Cl)nc2Cl)cc1 (centres undefined) in the records?
Result :: 100

Query :: Which value of MIC has been reported for Nc1nc(Cl)c(C(Cc2ccccc2)c2ccc(Cl)cc2)c(Cl)n1 (centres undefined) in the records?
Result :: 100

====

system: Staphylococcus epidermidis; test: Antibacterial activity against Staphylococcus epidermidis assessed as reduction in bacterial growth measured after 24 hrs by broth microdilution method; type: functional
metric_name: MIC

Query :: Which value of MIC has been reported for Nc1nc(Cl)c(C(Cc2ccccc2)c2ccc(Cl)cc2)c(Cl)n1 (centres undefined) in the records?
Result :: 100 µg/mL

Query :: Which value of MIC has been reported for Clc1ccc(C(Cc2ccccc2)c2c(Cl)nc(Cl)nc2Cl)cc1 (centres undefined) in the records?
Result :: > 100 µg/mL

Query :: Which value of MIC has been reported for Clc1ccc(C(Cc2cccc(Cl)c2)c2c(Cl)nc(N3CCNCC3)nc2Cl)cc1 (centres undefined) in the records?
Result :: 75 µg/mL

Query :: Which value of MIC has been reported for Clc1ccc(C(Cc2ccccc2)c2c(Cl)nc(N3CCNCC3)nc2Cl)cc1 (centres undefined) in the records?
Result :: 100 µg/mL
